System: K562
Test: NCI tumour cell line growth inhibition, 48 h
The source made the active and inactive calls. No stated cut-off is given here; in the data, active = GI50 up to about 1.1 µM and inactive = higher.
Just give me one of these, please: active, inactive

So what was the verdict on O=C(NC12CC3CCC1CC(C3)C2)[C@@H]1CCCN1C(=O)OCc1ccccc1 (some centres undefined) in this test?
inactive

Request: CCN(CC)CCNc1ccc2nnn3c4ccccc4c(=O)c1c23
inactive

Try this compound next: CN(C)CCNC(=O)c1cccc2nc3c(C(=O)NCCN(C)C)cccc3nc12
active

Try this compound next: CCOC(=O)c1c(SC(=O)C(C)(C)Oc2ccc(Cl)cc2)n(-c2ccccc2)c(=S)n(-c2ccccc2)c1=O
inactive

----------
Test system: UO-31
Assay: NCI tumour cell line growth inhibition, 48 h
Activity calls are given as the source filed them. Rule as the data show it: active = GI50 up to about 1.1 µM and inactive = higher.
Give GI50 for every item shown.

Reported GI50 for O=P1(O)c2ccccc2CCc2ccccc21 : what is it?
> 100 µM (inactive)

Also Cc1ccc(-c2n[nH]c(=O)n2/N=C\c2ccc([N+](=O)[O-])cc2)cc1 , if possible.
> 93.3 µM (inactive)

Likewise for Cc1cc(N(C)c2ccccc2)nc(N(C)c2ccccc2)n1 ?
80.2 µM (inactive)

CC12CC3OC(=O)C1COC14OC5(C2C1=O)C(O)(CCC1C4CC(O)C2(O)CC=CC(=O)C12C)C(=O)OC35C (stereo not given) , same question.
> 100 µM (inactive)

What about this compound? C[C@]12O[C@@]3(C)O[C@@]3(C)[C@]3(C)O[C@]3(C)[C@@]1(C)O2
> 100 µM (inactive)

What do you have for OC1=CN=C(c2ccccc2)Oc2ccccc21 ?
> 100 µM (inactive)

Can you check Cc1nc(-c2nc(C)c(C(=O)NNC(=O)C[n+]3ccccc3)s2)sc1C(=O)NNC(=O)C[n+]1ccccc1 next?
25.9 µM (inactive)

Moving on to CC(C)OP(=S)(NC(=S)c1ccccc1)OC(C)C
> 100 µM (inactive)

Next compound: CN/C(=N\N)NS(=O)(=O)c1cc(C)c(Cl)cc1S
25.1 µM (inactive)

Next up: CC1CCSC(N(C(=O)N(C)c2ccccc2)c2ccccc2)=N1 (stereo not given)
> 100 µM (inactive)

Input CC(=O)NC(Cc1ccccc1)C(=S)N1CCCC1 (stereo not given)
> 100 µM (inactive)

Field entry: COc1ccc(/C=N/Nc2nc(=S)[nH]c3[nH]ncc23)cc1
> 100 µM (inactive)

Let us now turn to O=C1CN(c2ccccc2)Cc2nc(Cl)ccc2N1
> 100 µM (inactive)

O=[N+]([O-])C=C(c1ccc(Cl)cc1)c1ccc(Cl)cc1 ?
14.2 µM (inactive)

# repeat for CCCCOc1ccc(S(=O)(=O)N/C(=N\O)Nc2ccc(Cl)cc2)cc1
12.2 µM (inactive)

----------
Tested on: SK-MEL-28
Assay: NCI tumour cell line growth inhibition, 48 h
Active and inactive are the calls of the source. Rule as the data show it: active = GI50 up to about 1.1 µM and inactive = higher.
RECORDED METRIC: GI50

Item under review: O=C(Nc1ccn(CCI)c(=O)n1)c1ccccc1 . Reported GI50?
> 100 µM (inactive)

Try this compound next: O=C1CSC(=S)N1/N=C/c1ccc(Cl)c([N+](=O)[O-])c1
27.5 µM (inactive)

And COC(=O)c1cc2c(cc1Cl)Sc1nnc(Nc3ccc(C)cc3)n1S2(=O)=O ?
9.33 µM (inactive)

Here is the next compound: CCCCCCCCCCCCCP(=O)(O)OCC
> 100 µM (inactive)

Same thing, different compound: C=C=C(CC)C(C(=O)OC)N(CC)CC (centres undefined)
> 100 µM (inactive)

Check O=[N+]([O-])c1ccc(Cl)cc1C1SCc2nc3ccccc3n21 (centres undefined) too.
> 100 µM (inactive)

Likewise for CCC(=O)N1C(=O)C(CC)(CC)C(=O)N1C(=O)CC ?
> 100 µM (inactive)

Item: O=C1C=CC2(O)OCC3C=C4O[C@@H]5OC6(CCCCC6)O[C@@H]5C4[C@@H]2[C@@H]13 (some centres undefined)
20 µM (inactive)

Same read-out for CCCCOc1ccc(S(=O)(=O)N/C(=N\O)Nc2ccc(Cl)cc2)cc1 ?
18.2 µM (inactive)
